conditions: 283.15 K; 101.33 kPa; Liquid; Vibrating tube method
metricName: mass density (kg/m3)

>>> number("CCCCCCCCC[P+](CC)(CC)CC.O=[N+]([O-])c1cn[n-]c1 [triethylnonylphosphonium 4-nitropyrazolide]")
1031
>>> number("CCCCCCn1cc[n+](C)c1.N#Cc1ccc[n-]1 [1-hexyl-3-methylimidazolium 2-cyanopyrrolide]")
1031
>>> number("CCCC[n+]1cccn1C.O=S(=O)([N-]S(=O)(=O)C(F)(F)F)C(F)(F)F [1-butyl-2-methylpyrazolium bis(trifluoromethylsulfonyl)imide]")
1465.4
>>> number("CCCCCCCCCCCCCC[P+](CCCCCC)(CCCCCC)CCCCCC.O=[N+]([O-])c1c[n-]cn1 [trihexyl(tetradecyl)phosphonium 4-nitroimidazolide]")
949.4
>>> number("CCCCCCCCCCCCCC[P+](CCCCCC)(CCCCCC)CCCCCC.Clc1nc[n-]c1Cl [trihexyl(tetradecyl)phosphonium 4,5-dichloroimidazolide]")
974.1

* * *

settings: 283.15 K; 101.33 kPa; Liquid; Vibrating tube method
Hi! Could you tag entries with mass density below 1000 kg/m3 as Condition met, and those at or above as Condition not met? Much appreciated.

>>> cat("CCC[n+]1ccn(C)c1C.O=[N+]([O-])c1cn[n-]c1 [1,2-dimethyl-3-propylimidazolium 4-nitropyrazolide]")
"Condition not met"
>>> cat("CCCCCCCCCCCCCC[P+](CCCCCC)(CCCCCC)CCCCCC.O=S(=O)([N-]S(=O)(=O)C(F)(F)F)C(F)(F)F")
"Condition not met"
>>> cat("CCCCCCn1cc[n+](C)c1C.O=[N+]([O-])c1cn[n-]c1 [1-hexyl-2,3-dimethylimidazolium 4-nitropyrazolide]")
"Condition not met"
>>> cat("CCCCCCCCCCCCCC[P+](CCCCCC)(CCCCCC)CCCCCC.O=[N+]([O-])c1cn[n-]c1 [trihexyl(tetradecyl)phosphonium 4-nitropyrazolide]")
"Condition met"
>>> cat("CCC=Cn1cc[n+](C)c1C.O=[N+]([O-])c1cn[n-]c1 [1-but-1-enyl-2,3-dimethylimidazolium 4-nitropyrazolide]")
"Condition not met"
>>> cat("CCCCCCCC[P+](CC)(CC)CC.Cc1ncc([N+](=O)[O-])[n-]1 [triethyloctylphosphonium 2-methyl-5-nitroimidazolide]")
"Condition not met"

* * *

conditions: 333.15 K; 101.33 kPa; Liquid; Cone and plate viscometry
Parameter viscosity: see the listing below.
metricName: viscosity (mPa·s)

>>> number("CCCCCCn1cc[n+](C)c1.O=[N+]([O-])c1cn[n-]c1 [1-hexyl-3-methylimidazolium 4-nitropyrazolide]")
51
>>> number("CCCCCCCC[P+](CC)(CC)CC.O=[N+]([O-])c1c[n-]cn1 [triethyloctylphosphonium 4-nitroimidazolide]")
52
>>> number("CCCCCCCCCCCCCC[P+](CCCCCC)(CCCCCC)CCCCCC.O=[N+]([O-])c1cn[n-]c1 [trihexyl(tetradecyl)phosphonium 4-nitropyrazolide]")
108

* * *

In this section, each of the compounds is paired with its reported Glass transition temperature.
settings: Glass; DSC
metricName: Glass transition temperature (°C)

>>> number("CCCC[n+]1cccn1C.O=S(=O)([N-]S(=O)(=O)C(F)(F)F)C(F)(F)F [1-butyl-2-methylpyrazolium bis(trifluoromethylsulfonyl)imide]")
-82
>>> number("CCCCCCC[P+](CC)(CC)CC.O=[N+]([O-])c1cn[n-]c1 [triethylheptylphosphonium 4-nitropyrazolide]")
-72
>>> number("CCC=Cn1cc[n+](C)c1C.O=[N+]([O-])c1cn[n-]c1 [1-but-1-enyl-2,3-dimethylimidazolium 4-nitropyrazolide]")
-53
>>> number("CC[P+](CC)(CC)COCCOC.O=[N+]([O-])c1cn[n-]c1")
-76
>>> number("CCCCCCCCCCCCCC[P+](CCCCCC)(CCCCCC)CCCCCC.O=[N+]([O-])c1cn[n-]c1 [trihexyl(tetradecyl)phosphonium 4-nitropyrazolide]")
-75
>>> number("CCCCCCCCCCCCCC[P+](CCCCCC)(CCCCCC)CCCCCC.Clc1nc[n-]c1Cl [trihexyl(tetradecyl)phosphonium 4,5-dichloroimidazolide]")
-64

* * *

conditions: 348.15 K; 101.33 kPa; Liquid; Vibrating tube method
± gives the expanded uncertainty stated by the source.
metricName: mass density

>>> result("CCCCCCCCSC(N(C)C)=[N+](C)C.O=S(=O)([N-]S(=O)(=O)C(F)(F)F)C(F)(F)F")
"1254.6 ± 8.6 kg/m3"
>>> result("CCCCCCCCCC[P+](CC)(CC)CC.O=[N+]([O-])c1cn[n-]c1 [decyltriethylphosphonium 4-nitropyrazolide]")
"981.7 ± 5.2 kg/m3"
>>> result("CCCCCCn1cc[n+](C)c1.O=[N+]([O-])c1cn[n-]c1 [1-hexyl-3-methylimidazolium 4-nitropyrazolide]")
"1091.1 ± 6.5 kg/m3"
>>> result("CCCC[n+]1cccn1C.O=S(=O)([N-]S(=O)(=O)C(F)(F)F)C(F)(F)F [1-butyl-2-methylpyrazolium bis(trifluoromethylsulfonyl)imide]")
"1404.6 ± 11 kg/m3"
>>> result("CCCCCCCCCCCCCC[P+](CCCCCC)(CCCCCC)CCCCCC.Cc1ncc([N+](=O)[O-])[n-]1 [trihexyl(tetradecyl)phosphonium 2-methyl-5-nitroimidazolide]")
"909.6 ± 4.6 kg/m3"
>>> result("CCC[n+]1ccn(C)c1C.O=[N+]([O-])c1cn[n-]c1 [1,2-dimethyl-3-propylimidazolium 4-nitropyrazolide]")
"1149.6 ± 7.2 kg/m3"

* * *

compounds and their reported mass density
settings: 298.15 K; 101.33 kPa; Liquid; Vibrating tube method
metricName: mass density (kg/m3)

>>> number("CCCC[S+]1CCCC1.O=S(=O)([N-]S(=O)(=O)C(F)(F)F)C(F)(F)F")
1455
>>> number("CCCCCCCCCCCCCC[P+](CCCCCC)(CCCCCC)CCCCCC.O=[N+]([O-])c1c[n-]cn1 [trihexyl(tetradecyl)phosphonium 4-nitroimidazolide]")
940.1
>>> number("CCC[n+]1ccn(C)c1C.O=[N+]([O-])c1cn[n-]c1 [1,2-dimethyl-3-propylimidazolium 4-nitropyrazolide]")
1182.2
>>> number("CCC=Cn1cc[n+](C)c1C.O=[N+]([O-])c1cn[n-]c1 [1-but-1-enyl-2,3-dimethylimidazolium 4-nitropyrazolide]")
1180.8
>>> number("CCCCCCCC[P+](CC)(CC)CC.O=[N+]([O-])c1cn[n-]c1 [triethyloctylphosphonium 4-nitropyrazolide]")
1030.9
>>> number("CCCCCC[n+]1ccn(C)c1.O=S(=O)([N-]S(=O)(=O)C(F)(F)F)C(F)(F)F")
1372.9
>>> number("CCCCCCCCCCCCCC[P+](CCCCCC)(CCCCCC)CCCCCC.O=S(=O)([N-]S(=O)(=O)C(F)(F)F)C(F)(F)F")
1065.1
>>> number("CCCCCCn1cc[n+](C)c1.O=[N+]([O-])c1cn[n-]c1 [1-hexyl-3-methylimidazolium 4-nitropyrazolide]")
1123.3
>>> number("CC[P+](CC)(CC)COCCOC.O=S(=O)([N-]S(=O)(=O)C(F)(F)F)C(F)(F)F")
1360.3
>>> number("CCCCCCCCCC[P+](CC)(CC)CC.O=[N+]([O-])c1cn[n-]c1 [decyltriethylphosphonium 4-nitropyrazolide]")
1010.9
>>> number("CCCCCCCC[P+](CC)(CC)CC.O=[N+]([O-])c1c[n-]cn1 [triethyloctylphosphonium 4-nitroimidazolide]")
1028.8
>>> number("CCCCCCn1cc[n+](C)c1.N#Cc1ccc[n-]1 [1-hexyl-3-methylimidazolium 2-cyanopyrrolide]")
1021.8
>>> number("CC(=O)[O-].CCCCCCn1cc[n+](C)c1 [3-hexyl-1-methylimidazolium acetate]")
1016.6
>>> number("CCCC[P+](CC)(CC)CC.Cc1ncc([N+](=O)[O-])[n-]1 [butyltriethylphosphonium 2-methyl-5-nitroimidazolide]")
1065.3

* * *

Below, each entry is listed with its recorded viscosity.
conditions: 283.15 K; 101.33 kPa; Liquid; Cone and plate viscometry
metricName: viscosity (mPa·s)

>>> number("CC[P+](CC)(CC)COCCOC.O=[N+]([O-])c1cn[n-]c1")
216
>>> number("CCCCCCn1cc[n+](C)c1.N#Cc1ccc[n-]1 [1-hexyl-3-methylimidazolium 2-cyanopyrrolide]")
902
>>> number("CCCCCCCCCCCCCC[P+](CCCCCC)(CCCCCC)CCCCCC.O=[N+]([O-])c1cn[n-]c1 [trihexyl(tetradecyl)phosphonium 4-nitropyrazolide]")
2290
>>> number("CCCCCCCCCCCCCC[P+](CCCCCC)(CCCCCC)CCCCCC.N#Cc1nc[n-]c1C#N [trihexyl(tetradecyl)phosphonium 4,5-dicyanoimidazolide]")
1630

* * *

conditions: 298.15 K; 101.33 kPa; Liquid; Vibrating tube method
Numbers after ± are expanded uncertainties.
We begin with a simple list: items and their reported mass density.
metricName: mass density

>>> result("CCCCCCCCCCCCCC[P+](CCCCCC)(CCCCCC)CCCCCC.N#Cc1nc[n-]c1C#N [trihexyl(tetradecyl)phosphonium 4,5-dicyanoimidazolide]")
"919.7 ± 4.7 kg/m3"
>>> result("CCCCCCSC(N(C)C)=[N+](C)C.O=S(=O)([N-]S(=O)(=O)C(F)(F)F)C(F)(F)F")
"1339 ± 9.8 kg/m3"
>>> result("CCCCCCCCCCCCCC[P+](CCCCCC)(CCCCCC)CCCCCC.O=[N+]([O-])c1cn[n-]c1 [trihexyl(tetradecyl)phosphonium 4-nitropyrazolide]")
"939.3 ± 4.8 kg/m3"
>>> result("CCCCCCCC[P+](CC)(CC)CC.O=S(=O)([N-]S(=O)(=O)C(F)(F)F)C(F)(F)F [triethyloctylphosphonium bis(trifluoromethylsulfonyl)imide]")
"1244.2 ± 8.4 kg/m3"
>>> result("CCCC[P+](CC)(CC)CC.O=[N+]([O-])c1cn[n-]c1 [butyltriethylphosphonium 4-nitropyrazolide]")
"1078.4 ± 6.3 kg/m3"
>>> result("CC[P+](CC)(CC)COCCOC.O=[N+]([O-])c1cn[n-]c1")
"1139 ± 7 kg/m3"
